Test: in vitro
Settings: human
Bridge positions count the residues as written; N and C are the ends. Square brackets hold non-standard residues; d marks the D form. Peptide text beside a SMILES is read from it. 2Nal = N[C@@H](Cc1ccc2ccccc2c1)C(=O)O; 4Pal = N[C@@H](Cc1ccncc1)C(=O)O; Cit = NC(=O)NCCC[C@H](N)C(=O)O
Examples of molecules with documented GI50 at 48 h follow.
The reply should contain only the number, in µM.

>>> testresult("N=C(N)NCCC[C@@H]1NC(=O)[C@@H]2CSSC[C@H](NC(=O)[C@H](Cc3ccc4ccccc4c3)NC(=O)[C@H](CCCNC(=N)N)NC(=O)[C@H](CCCNC(=N)N)NC(=O)[C@H]3CCCN3C(=O)CNC1=O)C(=O)N[C@@H](Cc1ccc(O)cc1)C(=O)N[C@@H](CCC(N)=O)C(=O)N[C@@H](CO)C(=O)N1CCC[C@@H]1C(=O)N1CCC[C@H]1C(=O)N[C@@H](Cc1ccc(O)cc1)C(=O)N[C@@H](CCCNC(=N)N)C(=O)N[C@@H](CCCNC(N)=O)C(=O)N2 [Ex. 87] (cyclo(YR[Cit]CRG[dP]RR[2Nal]CYQS[dP]P); disulfide 4-11)")
64

Now examine the next entry.
// query Which GI50 at 48 h value is on record for C[C@@H](O)[C@@H]1NC(=O)[C@H](CCCNC(=N)N)NC(=O)[C@H](Cc2ccc(O)cc2)NC(=O)[C@@H]2CCCN2C(=O)[C@H]2CCCN2C(=O)[C@H](CCCCN)NC(=O)[C@H](CCC(N)=O)NC(=O)[C@H](Cc2ccc(O)cc2)NC(=O)[C@@H]2CSSC[C@H](NC1=O)C(=O)N[C@@H](CCCNC(=N)N)C(=O)NCC(=O)N1CCC[C@@H]1C(=O)N[C@@H](Cc1ccncc1)C(=O)N[C@@H](CCCNC(=N)N)C(=O)N[C@@H](Cc1c[nH]c3ccccc13)C(=O)N2 [Ex. 118] (cyclo(YRTCRG[dP][4Pal]RWCYQK[dP]P); disulfide 4-11) ?
// result 52

* * *

Test: in vitro
Type: in vitro ADME
Settings: human, plasma
Bridge positions count the residues as written; N and C are the ends. Square brackets hold non-standard residues; d marks the D form. Peptide text beside a SMILES is read from it. Dab = NCC[C@H](N)C(=O)O
attributeMeasured: half-life at 10 μM (h)
The reply should contain only the number, in h.

These recorded examples may help you get a feel for the data.
>>> testresult("N=C(N)NCCC[C@@H]1NC(=O)[C@@H]2CSSC[C@H](NC(=O)[C@H](Cc3ccc4ccccc4c3)NC(=O)[C@H](CCCNC(=N)N)NC(=O)[C@H](CCCNC(=N)N)NC(=O)[C@H]3CCCN3C(=O)CNC1=O)C(=O)N[C@@H](Cc1ccc(O)cc1)C(=O)N[C@@H](CCCNC(N)=O)C(=O)N[C@@H](CCCCN)C(=O)N1CCC[C@@H]1C(=O)N1CCC[C@H]1C(=O)N[C@@H](Cc1ccc(O)cc1)C(=O)N[C@@H](CCCNC(=N)N)C(=O)N[C@@H](CCCNC(N)=O)C(=O)N2")
4.77
>>> testresult("C[C@@H](O)[C@@H]1NC(=O)[C@H](Cc2c[nH]cn2)NC(=O)[C@H](Cc2ccc(O)cc2)NC(=O)[C@@H]2CCCN2C(=O)[C@H]2CCCN2C(=O)[C@H](CCCCN)NC(=O)[C@H](CCC(N)=O)NC(=O)[C@H](Cc2ccc(O)cc2)NC(=O)[C@@H]2CSSC[C@H](NC1=O)C(=O)N[C@@H](CCCNC(=N)N)C(=O)NCC(=O)N1CCC[C@@H]1C(=O)N[C@@H](CCCNC(=N)N)C(=O)N[C@@H](CCCNC(=N)N)C(=O)N[C@@H](Cc1c[nH]c3ccccc13)C(=O)N2 [Ex. 120] (cyclo(YHTCRG[dP]RRWCYQK[dP]P); disulfide 4-11)")
0.65

// query Which half-life at 10 μM value is on record for C[C@@H](O)[C@@H]1NC(=O)[C@H](CCCNC(=N)N)NC(=O)[C@H](Cc2ccc(O)cc2)NC(=O)[C@@H]2CCCN2C(=O)[C@H]2CCCN2C(=O)[C@H](CCCCN)NC(=O)[C@H](CCC(N)=O)NC(=O)[C@H](Cc2ccc(O)cc2)NC(=O)[C@@H]2CSSC[C@H](NC1=O)C(=O)N[C@@H](CCCNC(=N)N)C(=O)NCC(=O)N1CCC[C@@H]1C(=O)N[C@@H](CCN)C(=O)N[C@@H](CCCNC(=N)N)C(=O)N[C@@H](Cc1c[nH]c3ccccc13)C(=O)N2 [Ex. 110] (cyclo(YRTCRG[dP][Dab]RWCYQK[dP]P); disulfide 4-11) ?
// result 1.92

Entry source: patent US8895695B2
